As shown below, each of these compounds has a reported MIC90 value.
- Tested on: Mycobacterium tuberculosis H37Rv pMSp12::GFP
- Assay overview: microbe, parasite or virus in culture
- Format: cell-based
- Test parameters: Mycobacterium tuberculosis, H37RV, 168 h, Mtb H37Rv, protein-poor media, 7 days; read-out: MIC90 7H9/CAS/GLU/Tx 7 Days
Numbers only here, please. The scale is µM.

Compound	Measured target	MIC90, µM
O=C(NCCNc1ccnc2cc(Cl)ccc12)Nc1nc2ccc(Cl)cc2s1	Mycobacterium tuberculosis H37Rv pMSp12::GFP	125

Query: Need MIC90, item Cc1ccc2nc(NC(=O)NC(C)CNc3ccnc4cc(Cl)ccc34)sc2c1 (stereo not drawn)
Response: 7.22

Query: Entry to check: O=C(NCCCNc1ccnc2cc(Cl)ccc12)Nc1nc2ccccc2s1
Response: 9.63

Query: Entry to check: O=C(NCCCCCCNc1ccnc2cc(Cl)ccc12)Nc1nc2ccc(F)cc2s1
Response: 6.97

Query: Entry to check: CO[C@H]1/C=C/O[C@@]2(C)Oc3c(C)c(O)c4c(O)c(c(/C=N/N5CCN(C)CC5)c(O)c4c3C2=O)NC(=O)/C(C)=C\C=C\[C@H](C)[C@H](O)[C@@H](C)[C@@H](O)[C@@H](C)[C@H](OC(C)=O)[C@@H]1C [RIF, Rifampicin, reference compound]
Response: 0.03
